Tested on: Vero E6 infected with SARS-CoV-2
Assay: SARS-CoV-2 infection rate relative to infected DMSO; higher = more infection, active = 60 or less
Details: 24 h
Reported SARS-CoV-2 infection rate values for a set of compounds

Look at this compound and give its reported SARS-CoV-2 infection rate. O=C(NC(=O)c1c(F)cccc1Cl)NC1c2ccccc2-c2ccccc21 (10 µM)
102% (inactive)

Look at this compound and give its reported SARS-CoV-2 infection rate. O=c1[nH]c2cc(C(F)(F)F)c(N3CCOCC3)cc2n(CP(=O)(O)O)c1=O (10 µM)
99% (inactive)

Look at this compound and give its reported SARS-CoV-2 infection rate. O=C(Nc1ncc(SCCN2CCCC2)s1)[C@]1(c2ccc(S(=O)(=O)C3CC3)cc2)C[C@H]1C1CCCCC1 (10 µM)
17% (active)

Look at this compound and give its reported SARS-CoV-2 infection rate. Cc1c(-c2ccccc2)oc2c(C(=O)OCCN3CCCCC3)cccc2c1=O [flavoxate] (10 µM)
88% (inactive)

Look at this compound and give its reported SARS-CoV-2 infection rate. CC(=O)OCC1=C(C(=O)O)N2C(=O)[C@@H](NC(=O)CS/C(=N/C(C)C)NC(C)C)[C@H]2SC1 [cefathiamidine] (10 µM)
92% (inactive)

New cases:
Look at this compound and give its reported SARS-CoV-2 infection rate. CCCc1nc(C(C)(C)O)c(C(=O)OCc2oc(=O)oc2C)n1Cc1ccc(-c2ccccc2-c2nnn[nH]2)cc1 [olmesartan-medoxomil] (10 µM)
116% (inactive)

Look at this compound and give its reported SARS-CoV-2 infection rate. CC(C)N(CCC(=O)c1ccc2ccccc2c1)Cc1ccccc1 (10 µM)
104% (inactive)

Look at this compound and give its reported SARS-CoV-2 infection rate. CS(=O)(=O)c1ccc(C2=C(c3ccccc3)C(=O)OC2)cc1 [rofecoxib] (10 µM)
96.5% (inactive)

Look at this compound and give its reported SARS-CoV-2 infection rate. Oc1ccc2c3c1O[C@H]1c4c(c5ccccc5n4Cc4ccccc4)C[C@@]4(O)[C@@H](C2)N(CC2CC2)CC[C@]314 [N-benzylnaltrindole] (0.833333 µM)
102% (inactive)

Look at this compound and give its reported SARS-CoV-2 infection rate. O=C1NC(=O)[C@@H](c2cn3c4c(cccc24)CCC3)[C@@H]1c1c[nH]c2ccccc12 [tivantinib] (10 µM)
107% (inactive)

Look at this compound and give its reported SARS-CoV-2 infection rate. Nc1ccc(S(=O)(=O)Nc2ccc(Cl)nn2)cc1 [sulfachlorpyridazine] (10 µM)
108% (inactive)

Look at this compound and give its reported SARS-CoV-2 infection rate. C[C@]12CC[C@@H](O)C[C@H]1CC[C@@H]1[C@@H]2CC[C@]2(C)C(=O)CC[C@@H]12 [3-alpha-hydroxy-5-beta-androstan-17-one] (10 µM)
102% (inactive)

Look at this compound and give its reported SARS-CoV-2 infection rate. CC(C)(Sc1ccc(CCN(CCCCC2CCCCC2)C(=O)NC2CCCCC2)cc1)C(=O)O (10 µM)
117% (inactive)

Look at this compound and give its reported SARS-CoV-2 infection rate. NCCCCN(Cc1nc2ccccc2[nH]1)[C@H]1CCCc2cccnc21 (10 µM)
102% (inactive)

Look at this compound and give its reported SARS-CoV-2 infection rate. O=c1oc(-c2ccc(C(F)(F)F)cc2)nn1Cc1cc(Cl)ccc1O (10 µM)
39.5% (active)

Look at this compound and give its reported SARS-CoV-2 infection rate. Nc1ncnc2c1c(-c1ccc(Oc3ccccc3)cc1)nn2C1CCCC1 (10 µM)
122% (inactive)
